Molecular target: T1, biotinylated human IL-33 (human) (UniProt O95760)
T1 sequence (biotin-labeled with EZ-LINK NHS-PEG4-Biotin, looked up): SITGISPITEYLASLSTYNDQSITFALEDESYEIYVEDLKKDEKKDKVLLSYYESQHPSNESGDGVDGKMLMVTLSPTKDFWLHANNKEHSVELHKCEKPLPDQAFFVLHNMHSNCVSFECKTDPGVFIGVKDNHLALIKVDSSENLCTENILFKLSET
Test: competitive ELISA, biotin-huIL-33 to coated hST2-Fc
QUANTITY_MEASURED: log10 of IC50 (log10 of the value in pM)
Quick note: numbers are log10 of IC50, with pM as the unit.

Input line: If you can, please state the reported log10 of IC50 value of H4H9664P (antibody, from another filing, IgG4, V domains shown) VH: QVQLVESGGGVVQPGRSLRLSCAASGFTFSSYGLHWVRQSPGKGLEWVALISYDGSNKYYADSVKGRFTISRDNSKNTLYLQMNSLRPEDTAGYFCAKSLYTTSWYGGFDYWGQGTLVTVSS VL: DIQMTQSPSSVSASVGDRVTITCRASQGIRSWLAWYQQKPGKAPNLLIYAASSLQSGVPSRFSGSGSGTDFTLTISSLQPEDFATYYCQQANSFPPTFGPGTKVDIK .
Output line: 2.28

Input line: Recorded log10 of IC50 of H4H9676P (antibody, from another filing, IgG4, V domains shown) VH: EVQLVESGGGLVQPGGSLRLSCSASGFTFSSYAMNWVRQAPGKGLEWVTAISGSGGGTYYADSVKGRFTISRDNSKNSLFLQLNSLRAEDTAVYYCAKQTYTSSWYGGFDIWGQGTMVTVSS VL: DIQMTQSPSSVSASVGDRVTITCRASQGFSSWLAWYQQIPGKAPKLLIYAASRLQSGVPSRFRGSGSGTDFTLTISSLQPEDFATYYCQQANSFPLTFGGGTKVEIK , please.
Output line: 2.99

Input line: Can you share its log10 of IC50? I mean this binder: H4H9672P (antibody, from another filing, IgG4, V domains shown) VH: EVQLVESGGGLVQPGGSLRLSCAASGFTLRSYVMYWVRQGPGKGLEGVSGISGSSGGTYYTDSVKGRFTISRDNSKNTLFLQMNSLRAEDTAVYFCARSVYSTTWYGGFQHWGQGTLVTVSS VL: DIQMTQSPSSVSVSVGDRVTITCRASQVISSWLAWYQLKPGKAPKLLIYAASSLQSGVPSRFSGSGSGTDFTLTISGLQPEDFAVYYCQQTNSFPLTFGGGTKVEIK
Output line: 2.34

Input line: What measured log10 of IC50 goes with H4H9662P (antibody, from another filing, IgG4, V domains shown) VH: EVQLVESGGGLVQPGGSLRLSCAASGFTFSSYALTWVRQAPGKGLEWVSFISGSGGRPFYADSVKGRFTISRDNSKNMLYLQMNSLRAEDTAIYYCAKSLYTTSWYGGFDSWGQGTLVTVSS VL: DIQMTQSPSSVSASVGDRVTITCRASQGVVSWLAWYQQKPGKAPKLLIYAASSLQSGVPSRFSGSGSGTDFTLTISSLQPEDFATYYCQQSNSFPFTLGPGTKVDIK ?
Output line: 2.40

Input line: If you can, please state the reported log10 of IC50 value of H4H9660P (antibody, from another filing, IgG4, V domains shown) VH: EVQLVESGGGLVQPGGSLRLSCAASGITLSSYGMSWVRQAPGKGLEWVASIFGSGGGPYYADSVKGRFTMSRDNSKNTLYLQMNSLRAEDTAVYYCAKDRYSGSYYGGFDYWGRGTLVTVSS VL: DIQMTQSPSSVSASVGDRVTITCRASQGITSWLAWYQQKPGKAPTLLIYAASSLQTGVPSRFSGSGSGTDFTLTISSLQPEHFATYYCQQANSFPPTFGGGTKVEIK .
Output line: 1.96

Input line: Consider the binder H4H9665P (antibody, from another filing, IgG4, V domains shown) VH: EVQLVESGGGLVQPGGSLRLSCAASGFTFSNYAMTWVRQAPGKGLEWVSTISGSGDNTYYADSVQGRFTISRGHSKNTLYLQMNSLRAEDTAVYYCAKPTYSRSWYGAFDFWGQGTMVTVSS VL: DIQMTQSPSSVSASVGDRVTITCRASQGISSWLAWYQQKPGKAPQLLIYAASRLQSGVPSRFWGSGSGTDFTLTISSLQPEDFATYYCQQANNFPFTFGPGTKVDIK and give its measured log10 of IC50.
Output line: 2.85

Input line: Item H4H9671P (antibody, from another filing, IgG4, V domains shown) VH: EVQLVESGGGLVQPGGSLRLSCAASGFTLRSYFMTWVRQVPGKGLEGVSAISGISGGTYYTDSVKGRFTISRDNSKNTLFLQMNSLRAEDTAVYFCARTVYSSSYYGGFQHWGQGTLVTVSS VL: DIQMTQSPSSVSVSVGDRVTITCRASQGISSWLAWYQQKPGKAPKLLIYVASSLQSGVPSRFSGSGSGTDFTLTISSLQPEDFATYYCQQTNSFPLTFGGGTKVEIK has what recorded log10 of IC50?
Output line: 1.98
